Molecular target: T1, corticotropin releasing factor 2 receptor; also: reference of the scale not given here
T1 sequence (Q13324 whole entry, species assumed, looked up): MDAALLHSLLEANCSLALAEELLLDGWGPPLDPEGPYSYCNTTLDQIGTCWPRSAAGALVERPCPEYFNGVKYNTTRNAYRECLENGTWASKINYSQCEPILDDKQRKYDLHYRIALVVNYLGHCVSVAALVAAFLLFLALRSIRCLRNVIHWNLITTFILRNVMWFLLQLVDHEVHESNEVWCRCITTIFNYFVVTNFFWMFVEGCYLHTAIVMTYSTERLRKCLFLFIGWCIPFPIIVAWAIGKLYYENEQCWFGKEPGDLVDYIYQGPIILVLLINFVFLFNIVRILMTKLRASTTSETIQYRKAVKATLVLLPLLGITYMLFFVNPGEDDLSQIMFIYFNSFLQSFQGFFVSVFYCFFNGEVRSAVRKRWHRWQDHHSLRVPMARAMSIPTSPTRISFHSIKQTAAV
Experiment: cell-based or functional assay
Ends that are not written are not given here.
REPORTED ENDPOINT: CRF2R Emax (%)
Reply with just the number (in %).

Worked examples, 2 binders total:
DNPSLSIDLPLFLLRTLLELARTQSQRERAEQNAIIFASV-NH2 [SEQ ID NO 178] | 96.5
IVLSLDVPIGLLQILLEQRRAAREQATTNARILARV-NH2 [SEQ ID NO 133] | 88

# evaluate next
**Q:** Sample ZGPPISIDLPITLLRKMIEIEKQEKEKQQAANNRLLLDTI (C-terminal amide) [SEQ ID NO 24] — what was its CRF2R Emax?
**A:** 100
